Tested on: Pseudomonas aeruginosa
Experiment: Preservative test in cosmetic lotion, weekly reinoculation
Format: cell-based
Settings: read-out: Minimum Inhibitory Concentration Week 3
Measurement kind: MIC

* CCSC=C(Cl)C#N | 125 to 250 µg/mL
* CSC=C(Cl)C#N | 15 to 31 µg/mL
* CCSC=C(Br)C#N | 31 to 62 µg/mL
* CCCSC=C(Cl)C#N | 1000 to 2000 µg/mL
* CSC=C(Br)C#N | < 7.8 µg/mL

###

Tested on: Aspergillus niger
Assay: Preservative test in cosmetic lotion, weekly reinoculation
Format: cell-based
Conditions: A.n., Week 2, weekly reinoculation, read-out: Minimum Inhibitory Concentration Week 2
Measurement kind: MIC

* CCSC=C(Br)C#N [Example 4, α-bromo-β-ethylthio-acrylonitrile] | < 7.8 µg/mL
* CSC=C(Cl)C#N [Example 2, α-Chloro-β-methylthio-acrylonitrile] | < 7.8 µg/mL
* CSC=C(Br)C#N [Example 1, α-Bromo-β-methylthio-acrylonitrile] | < 7.8 µg/mL
* CCSC=C(Cl)C#N [Example 3, α-chloro-β-ethylthio-acrylonitrile] | < 7.8 µg/mL
* CCCSC=C(Cl)C#N [Example 5] | 125 to 250 µg/mL

###

Tested on: Aspergillus niger
Assay: Preservative test in cosmetic lotion, weekly reinoculation
Type: cell-based
Details: A.n., Week 3, weekly reinoculation, read-out: Minimum Inhibitory Concentration Week 3
Form field: MIC (one value per entry).
Measurement kind: MIC

- CCCSC=C(Cl)C#N: 125 to 250 µg/mL
- CCSC=C(Cl)C#N: < 7.8 µg/mL
- CCSC=C(Br)C#N: < 7.8 µg/mL
- CSC=C(Cl)C#N: < 7.8 µg/mL
- CSC=C(Br)C#N: < 7.8 µg/mL

###

Form field: MIC (one value per entry).
System: Aspergillus niger
Test: Preservative test in cosmetic lotion, weekly reinoculation
Type: cell-based
Details: A.n., Week 4, weekly reinoculation, read-out: Minimum Inhibitory Concentration Week 4
Measurement kind: MIC

- CCCSC=C(Cl)C#N [Example 5]: 125 to 250 µg/mL
- CSC=C(Br)C#N [Example 1, α-Bromo-β-methylthio-acrylonitrile]: < 7.8 µg/mL
- CCSC=C(Cl)C#N [Example 3, α-chloro-β-ethylthio-acrylonitrile]: < 7.8 µg/mL
- CCSC=C(Br)C#N [Example 4, α-bromo-β-ethylthio-acrylonitrile]: < 7.8 µg/mL
- CSC=C(Cl)C#N [Example 2, α-Chloro-β-methylthio-acrylonitrile]: < 7.8 µg/mL

###

System: Pseudomonas aeruginosa
Test: Preservative test in cosmetic lotion, weekly reinoculation
Format: cell-based
Settings: read-out: Minimum Inhibitory Concentration Week 1
Form field: MIC (one value per entry).
Measurement kind: MIC

* CCSC=C(Br)C#N | 31 to 62 µg/mL
* CCCSC=C(Cl)C#N | > 2000 µg/mL
* CSC=C(Cl)C#N | 31 to 62 µg/mL
* CCSC=C(Cl)C#N | 250 to 500 µg/mL
* CSC=C(Br)C#N | < 7.8 µg/mL

Values were extracted from patent EP0360850B1.
